The reported measurements were obtained from patent US20250092039A1.

Listing of entries alongside the reported DC50.
- Target Under Test: KRAS G12V (Homo sapiens (Human), UniProt P01116, G12V)
- Sequence (P01116-2 other isoform, or with tags, fused parts or gaps G12V): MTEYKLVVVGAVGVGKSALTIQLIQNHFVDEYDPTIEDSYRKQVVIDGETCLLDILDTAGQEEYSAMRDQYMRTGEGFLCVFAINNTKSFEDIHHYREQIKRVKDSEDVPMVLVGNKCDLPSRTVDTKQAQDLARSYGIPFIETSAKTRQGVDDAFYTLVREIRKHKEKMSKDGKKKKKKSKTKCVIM
- Experiment Description: KRAS G12V degradation in SW620 cells (Western blot, DC50)
- Assay type: cell-based
- Experimental Setup: 24 hours
Measured Parameter: DC50

# Compound, Measured Parameter, Experimental Result
measured = [
    ("CCc1cccc2cc(O)cc(-c3ncc4c(N5CCC[C@@](C)(O)C5)nc(OCC5(CN6CCC7(CC6)CC(CN6CCN(c8ccc9c(c8)CN([C@H]8CCC(=O)NC8=O)C9=O)CC6)C7)CC5)nc4c3F)c12", "DC50", "1 to 10 nM"),
    ("CCc1c(F)ccc2cc(O)cc(-c3ncc4c(N5CCC[C@@H](O)CC5)nc(OCC5(CN6CCC7(CC6)CC(CN6CCN(c8ccc9c(c8)CN([C@H]8CCC(=O)NC8=O)C9=O)CC6)C7)CC5)nc4c3F)c12", "DC50", "1 to 10 nM"),
    ("CCc1c(F)ccc2cc(O)cc(-c3ncc4c(N5CCC[C@]6(C5)C[C@@H](O)C6)nc(OCC5(CN6CCC7(CC6)CC(CN6CCN(c8ccc9c(c8)CN([C@H]8CCC(=O)NC8=O)C9=O)CC6)C7)CC5)nc4c3F)c12", "DC50", "> 100 nM"),
    ("CCc1c(F)ccc2cc(O)cc(-c3ncc4c(N5CCC[C@@](C)(O)C5)nc(OCC5(CN6CCC7(CC6)CC(CN6CCN(c8cc(F)c(C9CCC(=O)NC9=O)c(F)c8)CC6)C7)CC5)nc4c3F)c12 (some centres unmarked)", "DC50", "< 1 nM"),
    ("C[C@@]1(O)CCCN(c2nc(OCC3(CN4CCC5(CC4)CC(CN4CCN(c6ccc7c(c6)CN([C@H]6CCC(=O)NC6=O)C7=O)CC4)C5)CC3)nc3c(F)c(-c4cc(O)cc5ccc(F)c(Cl)c45)ncc23)C1", "DC50", "< 1 nM"),
]

###

- Target Under Test: KRAS G12V (Homo sapiens (Human), UniProt P01116, G12V)
- Experiment Description: KRAS G12V degradation in SW620 cells (Western blot, DC50)
- Format: cell-based
- Experimental Setup: 24 hours
Measured Parameter: DC50

# Molecule, Target Under Test, Experimental Result
measured = [
    ("CCc1cccc2cc(O)cc(-c3ncc4c(N5CCCOCC5)nc(OCC5(CN6CCC7(CC6)CC(CN6CCN(c8ccc9c(c8)CN([C@H]8CCC(=O)NC8=O)C9=O)CC6)C7)CC5)nc4c3F)c12 [Compound 109]", "KRAS G12V (Homo sapiens (Human), UniProt P01116, G12V)", "> 100 nM"),
    ("CCc1cccc2cc(O)cc(-c3ncc4c(N(C)C5C[C@H]5F)nc(OCC5(CN6CCC(CN7CCN(c8ccc9c(c8)CN([C@H]8CCC(=O)NC8=O)C9=O)CC7)CC6)CC5)nc4c3F)c12 (some centres unmarked) [Compound 29]", "KRAS G12V (Homo sapiens (Human), UniProt P01116, G12V)", "1 to 10 nM"),
    ("CCc1c(F)ccc2cc(O)cc(-c3ncc4c(N5CCC[C@@](C)(O)C5)nc(OCC5(CN6CCN(C7CC8(C7)CN(c7ccc9c(c7)CN(C7CCC(=O)NC7=O)C9=O)C8)CC6)CC5)nc4c3F)c12 (some centres unmarked) [Compound 161]", "KRAS G12V (Homo sapiens (Human), UniProt P01116, G12V)", "< 1 nM"),
    ("C[C@@]1(O)CCCN(c2nc(OCC3(CN4CCC5(CC4)CC(CN4CCN(c6ccc7c(c6)CN([C@H]6CCC(=O)NC6=O)C7=O)CC4)C5)CC3)nc3c(F)c(-c4cc(O)cc5ccc(F)c(F)c45)ncc23)C1 [Compound 103]", "KRAS G12V (Homo sapiens (Human), UniProt P01116, G12V)", "< 1 nM"),
    ("C[C@@]1(O)CCCN(c2nc(OCC3(CN4CCC5(CC4)CC(N4CCN(c6ccc7c(c6)CN([C@H]6CCC(=O)NC6=O)C7=O)CC4)C5)CC3)nc3c(F)c(-c4cc(O)cc5ccc(F)c(F)c45)ncc23)C1 [Compound 170]", "KRAS G12V (Homo sapiens (Human), UniProt P01116, G12V)", "1 to 10 nM"),
]
